Reported values of pKi for individual entries
- systemName: N(G),N(G)-dimethylarginine dimethylaminohydrolase 1 (Homo sapiens, UniProt O94760)
- Sequence (O94760 whole entry): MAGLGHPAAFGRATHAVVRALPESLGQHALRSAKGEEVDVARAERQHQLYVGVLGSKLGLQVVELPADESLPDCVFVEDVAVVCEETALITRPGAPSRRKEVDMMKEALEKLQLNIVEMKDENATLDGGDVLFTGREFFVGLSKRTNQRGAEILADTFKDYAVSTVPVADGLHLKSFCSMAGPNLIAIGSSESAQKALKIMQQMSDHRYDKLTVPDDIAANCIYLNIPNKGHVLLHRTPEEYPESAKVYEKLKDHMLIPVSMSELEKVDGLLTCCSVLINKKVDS
- testDetails: Competitive inhibition of human recombinant His6-tagged DDAH1 expressed in Escherichia coli BL21(DE3) using Nomega,Nomega-dimethyl-L-arginine as substrate after 80 mins by double-reciprocal plot analysis
pKi: −log10 of the molar value.

# compoundStructureString, pKi
records = [
    ("CCc1nc2ccccc2[nH]1", 3.10),
    ("NCCSc1nc2ccccc2o1", 2.77),
]

###

- systemName: N(G),N(G)-dimethylarginine dimethylaminohydrolase 1 (Homo sapiens, UniProt O94760)
- testDetails: Inhibition of human recombinant His6-tagged DDAH1 expressed in Escherichia coli BL21(DE3) using Nomega,Nomega-dimethyl-L-arginine as substrate after 80 mins by colorimetric ureido derivitization assay
Reported values of IC50 for individual entries

# compoundStructureString, IC50 / mM
records = [
    ("CCc1nc2ccccc2[nH]1", 1.4),
    ("NCCSc1nc2ccccc2o1", 2.7),
]
